Measured IC50 by item
test system: 885724-159-R-J1-PDC complex spheroid viability; experiment: Anticancer human tumor 885724-159-R-J1-PDC patient-derived pancreatic adenocarcinoma cell line growth inhibition [GQUAD]; conditions: curve of first compound; second compound 0.0316 µM
outcome_measure: IC50 (µM)

CC(C)(O)C1CCC(Nc2ccc3ncc(-c4cccc(C(F)(F)F)c4)n3n2)CC1 (stereo not given) + Cc1[nH]c2ccc(F)cc2c1-c1nc2c3cccnc3c3ncccc3c2[nH]1    2.5
Cc1[nH]c2ccccc2c1CCNCc1ccc(/C=C/C(=O)NO)cc1 + Cc1cnc(CNC(=O)c2c(=O)c3ccc(N4CCCN(C)CC4)nc3n3c2sc2ccccc23)cn1    0.291
COc1cccc2c1C(=O)c1c(O)c3c(c(O)c1C2=O)CC(O)(C(=O)CO)CC3OC1CC(N)C(O)C(C)O1 (stereo not given) + CN(C)c1ccc(Nc2c3ccc(NC(=O)CCN4CCCC4)cc3nc3cc(NC(=O)CCN4CCCC4)ccc23)cc1    2.17
COc1ccc([C@@H](O)c2cc(-c3ncnc4cc(N5CCOCC5)ccc34)c(F)cc2Cl)nn1 + Cc1[nH]c2ccc(F)cc2c1-c1nc2c3cccnc3c3ncccc3c2[nH]1    6.88

---

tested on: 885724-159-R-J1-PDC complex spheroid viability; experiment: Anticancer human tumor 885724-159-R-J1-PDC cell line growth inhibition [GQUAD]; conditions: second compound 0.1 µM; first compound 0.316 µM; stronger effect = lower value;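 further: spheroids exposed to agents for seven days before readout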;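 on viability, T/C: percent of vehicle control viability where 100% = DMSO wells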
outcome_measure: viability, T/C (%)

CC(=O)O[C@H]1C(=O)[C@@]2(C)[C@H]([C@H](OC(=O)c3ccccc3)[C@]3(O)C[C@H](OC(=O)[C@H](O)[C@@H](NC(=O)c4ccccc4)c4ccccc4)C(C)=C1C3(C)C)[C@]1(OC(C)=O)CO[C@@H]1C[C@@H]2O + Cc1[nH]c2ccc(F)cc2c1-c1nc2c3cccnc3c3ncccc3c2[nH]1    78
CC(C)n1c(=O)n(C)c2cnc3cc(F)c(-c4ccc(OCCCN5CCCCC5)nc4)cc3c21 + CN(C)c1ccc(Nc2c3ccc(NC(=O)CCN4CCCC4)cc3nc3cc(NC(=O)CCN4CCCC4)ccc23)cc1    112

---

tested on: 885724-159-R-J1-PDC complex spheroid viability; experiment: Anticancer human tumor 885724-159-R-J1-PDC cell line growth inhibition [GQUAD]; conditions: curve of first compound; second compound 1 µM;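 further: spheroids exposed to agents for seven days before readout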
Threshold 3 µM: IC50 strictly smaller gives Yes, otherwise No.

Cc1cccc(N(C)C(=O)C2C(O)CCN2c2nc(C)cc(C(F)(F)F)c2C#N)c1 (stereo not given) + Cc1cnc(CNC(=O)c2c(=O)c3ccc(N4CCCN(C)CC4)nc3n3c2sc2ccccc23)cn1    No
O=C(c1cc(Cc2n[nH]c(=O)c3ccccc23)ccc1F)N1CCN(C(=O)C2CC2)CC1 + Cc1cnc(CNC(=O)c2c(=O)c3ccc(N4CCCN(C)CC4)nc3n3c2sc2ccccc23)cn1    No
C#Cc1c(F)ccc2cc(O)cc(-c3ncc4c(N5CC6CCC(C5)N6)nc(OCC56CCCN5CC(F)C6)nc4c3F)c12 (stereo not given) + CN(C)c1ccc(Nc2c3ccc(NC(=O)CCN4CCCC4)cc3nc3cc(NC(=O)CCN4CCCC4)ccc23)cc1    No
COc1cc(C2c3cc4c(cc3C(OC3OC5COC(C)OC5C(O)C3O)C3COC(=O)C23)OCO4)cc(OC)c1O (stereo not given) + Cc1cnc(CNC(=O)c2c(=O)c3ccc(N4CCCN(C)CC4)nc3n3c2sc2ccccc23)cn1    No
Cc1[nH]c2ccccc2c1CCNCc1ccc(/C=C/C(=O)NO)cc1 + CN(C)c1ccc(Nc2c3ccc(NC(=O)CCN4CCCC4)cc3nc3cc(NC(=O)CCN4CCCC4)ccc23)cc1    Yes
CCCS(=O)(=O)Nc1ccc(F)c(C(=O)c2c[nH]c3ncc(-c4ccc(Cl)cc4)cc23)c1F + Cc1cnc(CNC(=O)c2c(=O)c3ccc(N4CCCN(C)CC4)nc3n3c2sc2ccccc23)cn1    No
COc1ccc([C@@H](O)c2cc(-c3ncnc4cc(N5CCOCC5)ccc34)c(F)cc2Cl)nn1 + Cc1cnc(CNC(=O)c2c(=O)c3ccc(N4CCCN(C)CC4)nc3n3c2sc2ccccc23)cn1    No
CC(C)(O)C1CCC(Nc2ccc3ncc(-c4cccc(C(F)(F)F)c4)n3n2)CC1 (stereo not given) + Cc1[nH]c2ccc(F)cc2c1-c1nc2c3cccnc3c3ncccc3c2[nH]1    Yes
CC(=O)O[C@H]1C(=O)[C@@]2(C)[C@H]([C@H](OC(=O)c3ccccc3)[C@]3(O)C[C@H](OC(=O)[C@H](O)[C@@H](NC(=O)c4ccccc4)c4ccccc4)C(C)=C1C3(C)C)[C@]1(OC(C)=O)CO[C@@H]1C[C@@H]2O + Cc1[nH]c2ccc(F)cc2c1-c1nc2c3cccnc3c3ncccc3c2[nH]1    No
COc1ccc([C@@H](O)c2cc(-c3ncnc4cc(N5CCOCC5)ccc34)c(F)cc2Cl)nn1 + Cc1[nH]c2ccc(F)cc2c1-c1nc2c3cccnc3c3ncccc3c2[nH]1    No
